- Test system: Streptococcus pneumoniae
- EXPERIMENT: Antibacterial activity against Streptococcus pneumoniae after 24 hrs by CLSI method
- Type: functional
ENDPOINT: MIC (µM)
Quick note: give the figure in µM, leave out the unit.

Example entries and their recorded answers appear below.
SMILES DATA	U	MIC
COC(=O)c1ccc2c(c1)N(CCN1CCC(NCc3ccc4c(n3)NC(=O)CO4)CC1)C(=O)CO2	µM	8.1
COc1ccc2c(c1)N(CCN1CCC(NCc3ccc4c(n3)NC(=O)CO4)CC1)C(=O)CO2	µM	1.1
CC(=O)c1ccc2c(c1)N(CCN1CCC(NCc3ccc4c(n3)NC(=O)CO4)CC1)C(=O)CO2	µM	2.1
O=C1COc2ccc(CNC3CCN(CCN4C(=O)COc5ccc(-c6ccco6)cc54)CC3)nc2N1	µM	0.5
O=C1COc2ccc(CNC3CCN(CCN4C(=O)COc5ccc(O)cc54)CC3)nc2N1	µM	8.8

Turning now to a further compound:
Given the entry "O=C1COc2ccc(CNC3CCN(CCN4C(=O)COc5ccc([N+](=O)[O-])cc54)CC3)nc2N1" , report its measured MIC. 0.5

----------
This section presents compounds with their documented log10 of MIC values.
- System: Moraxella catarrhalis
- EXPERIMENT: Antibacterial activity against Moraxella catarrhalis after 24 hrs by CLSI method
- Format: functional
# values: log10(MIC), units µM

Example entries and their recorded answers appear below.
SMILES DATA	RESULT
COc1ccc2c(c1)N(CCN1CCC(NCc3ccc4c(n3)NC(=O)CO4)CC1)C(=O)CO2	-1.00
COC(=O)c1ccc2c(c1)N(CCN1CCC(NCc3ccc4c(n3)NC(=O)CO4)CC1)C(=O)CO2	-1.00
O=C1COc2ccc(CNC3CCN(CCN4C(=O)COc5ccc(OC(F)(F)F)cc54)CC3)nc2N1	-1.00
O=C1COc2ccc(CNC3CCN(CCN4C(=O)COc5ccc(NC(=O)C(F)(F)F)cc54)CC3)nc2N1	1.21
O=C1COc2ccc(CNC3CCN(CCN4C(=O)COc5ccc(-c6ccco6)cc54)CC3)nc2N1	-1.22
CCS(=O)(=O)c1ccc2c(c1)N(CCN1CCC(NCc3ccc4c(n3)NC(=O)CO4)CC1)C(=O)CO2	0.88
O=C1COc2ccc(CNC3CCN(CCN4C(=O)COc5ccc(O)cc54)CC3)nc2N1	-1.00
CC(=O)c1ccc2c(c1)N(CCN1CCC(NCc3ccc4c(n3)NC(=O)CO4)CC1)C(=O)CO2	-0.52

Given the entry "CS(=O)(=O)c1ccc2c(c1)N(CCN1CCC(NCc3ccc4c(n3)NC(=O)CO4)CC1)C(=O)CO2" , report its measured log10 of MIC. 0.59

Given the entry "O=C1COc2ccc(CNC3CCN(CCN4C(=O)COc5ccc(Cl)cc54)CC3)nc2N1" , report its measured log10 of MIC. -1.00

----------
- System: Klebsiella pneumoniae
- EXPERIMENT: Antibacterial activity against Klebsiella pneumoniae after 24 hrs by CLSI method
- Assay type: functional
This section presents compounds with their documented MIC values.

COMPOUND	MIC
CC(O)c1ccc2c(c1)N(CCN1CCC(NCc3ccc4c(n3)NC(=O)CO4)CC1)C(=O)CO2 (centres undefined)	> 16.6 µM

Given the entry "N#Cc1ccc2c(c1)N(CCN1CCC(NCc3ccc4c(n3)NC(=O)CO4)CC1)C(=O)CO2" , report its measured MIC. 4.3 µM
